The compounds below each have a reported IC50 tested on Poly [ADP-ribose] polymerase tankyrase-1 (Homo sapiens, UniProt O95271); the values come from various publications.
Classification field. Basis: IC50. Definitions: zone 1: < 50 nM; zone 2: ≥ 50 nM and < 300 nM; zone 3: ≥ 300 nM

// below: answered compounds
[[record]]
compound = "Cc1cc(C)n2ncc(C(=O)N[C@H]3CC[C@H](C(=O)Nc4ccc(F)cc4Cl)CC3)c2n1"
target_system = "Poly [ADP-ribose] polymerase tankyrase-1 (Homo sapiens, UniProt O95271)"
group_label = "zone 1"

[[record]]
compound = "O=C(NC12CCC(C(=O)Nc3ccc(F)cc3Cl)(CC1)CC2)c1cnc2cccnn12"
target_system = "Poly [ADP-ribose] polymerase tankyrase-1 (Homo sapiens, UniProt O95271)"
group_label = "zone 3"

[[record]]
compound = "CC#CCOc1ccc(C(=O)C2CCN(CC(=O)N(Cc3nc4c(c(=O)[nH]3)COCC4)CC3CC3)CC2)cc1"
target_system = "Poly [ADP-ribose] polymerase tankyrase-1 (Homo sapiens, UniProt O95271)"
group_label = "zone 1"

[[record]]
compound = "C[C@@H](c1ccc(F)cc1)N(Cc1nc2c(c(=O)[nH]1)COCC2)C(=O)CN1CCC(C(=O)c2ccc(F)cc2)CC1"
target_system = "Poly [ADP-ribose] polymerase tankyrase-1 (Homo sapiens, UniProt O95271)"
group_label = "zone 2"

[[record]]
compound = "CNc1ccn2ncc(C(=O)N[C@H]3CC[C@@]4(CCN(c5ccc(F)cc5Cl)C4=O)CC3)c2n1"
target_system = "Poly [ADP-ribose] polymerase tankyrase-1 (Homo sapiens, UniProt O95271)"
group_label = "zone 1"


*Q* Band for the recorded IC50 of Cc1cc(C)n2ncc(C(=O)N[C@H]3CC[C@H](C(=O)Nc4ccncc4Cl)CC3)c2n1 ?
*A* zone 3

*Q* Band for the recorded IC50 of Cc1cccc2c(=O)[nH]c3c(c12)COC(C(C)(C)COCc1ccccc1)C3 (stereo not drawn) ?
*A* zone 1

*Q* Band for the recorded IC50 of Cc1cc(N2CCC[C@]3(CC[C@@H](NC(=O)c4cnc5cccnn45)CC3)C2=O)c(Cl)cc1F ?
*A* zone 2

*Q* Band for the recorded IC50 of O=C(CCc1ccccc1)N(Cc1nc2c(c(=O)[nH]1)COCC2)Cc1ccc(Cl)s1 ?
*A* zone 3

###

The molecules below each have a reported IC50 tested on Poly [ADP-ribose] polymerase tankyrase-1 (Homo sapiens, UniProt O95271); the values come from various publications.
Expressed in nM, but write only the number.

[[record]]
molecule = "CNC(=O)c1nc[nH]c1C(=O)N[C@H]1CC[C@H](C(=O)Nc2ccc(F)cc2)CC1"
target_system = "Poly [ADP-ribose] polymerase tankyrase-1 (Homo sapiens, UniProt O95271)"
reported_endpoint = "IC50"
value_measured = 4100

[[record]]
molecule = "Cn1ccc2c(=O)[nH]c(N3CCN(c4ccc(C#N)cc4)CC3)nc21"
target_system = "Poly [ADP-ribose] polymerase tankyrase-1 (Homo sapiens, UniProt O95271)"
reported_endpoint = "IC50"
value_measured = 97

[[record]]
molecule = "CC(C)C1Cc2[nH]c(=O)c3cnccc3c2CO1 (racemic)"
target_system = "Poly [ADP-ribose] polymerase tankyrase-1 (Homo sapiens, UniProt O95271)"
reported_endpoint = "IC50"
value_measured = 50.8


*Q* // IC50 lookup, key: O=C(NCC1CCCO1)c1nc[nH]c1C(=O)N[C@H]1CC[C@H](C(=O)Nc2cc(F)c(F)cc2Cl)CC1 (some centres unmarked)
*A* 30

*Q* // IC50 lookup, key: O=C(N[C@H]1CC[C@H](C(=O)Nc2ccc(F)cc2Cl)CC1)c1cnc2ccc(Cl)nn12
*A* 530

*Q* // IC50 lookup, key: O=C(NC12CCC(C(=O)Nc3c(F)cc(F)cc3Cl)(CC1)CC2)c1cnn2cccnc12
*A* 560

*Q* // IC50 lookup, key: COCC(C)NC(=O)c1nc[nH]c1C(=O)N[C@H]1CC[C@H](C(=O)Nc2cnccc2Cl)CC1 (some centres unmarked)
*A* 68

*Q* // IC50 lookup, key: Cn1ccc2c(=O)[nH]c(N3CCN(c4ccc(C#N)cn4)CC3)nc21
*A* 129

*Q* // IC50 lookup, key: Cc1cnc2c(C(=O)N[C@H]3CC[C@@]4(CCN(c5ccc(F)cc5Cl)C4=O)CC3)cnn2c1
*A* 11

*Q* // IC50 lookup, key: O=C(C1CCOCC1)N1CCC(C2Cc3[nH]c(=O)c4ccccc4c3CO2)CC1 (racemic)
*A* 35.6

*Q* // IC50 lookup, key: Cn1ccc2c(=O)[nH]c(N3CCN(c4ccccn4)CC3)nc21
*A* 134

*Q* // IC50 lookup, key: CC(=O)c1cnc2c(C(=O)N[C@H]3CC[C@H](C(=O)Nc4ccc(F)cc4Cl)CC3)cnn2c1C
*A* 65

*Q* // IC50 lookup, key: Cc1nc2c(C(=O)N[C@H]3CC[C@H](C(=O)Nc4c(F)cc(F)cc4Cl)CC3)cnn2c2c1CCC2
*A* 57

*Q* // IC50 lookup, key: Cc1cccc2c(=O)[nH]c3c(c12)COC(C1CCN(C(=O)C2CC2)CC1)C3 (racemic)
*A* 28.3

*Q* // IC50 lookup, key: O=C(N[C@H]1CC[C@@]2(CCN(c3ccc(F)cc3Cl)C2=O)CC1)c1[nH]cnc1C(=O)N1CC(F)C1
*A* 7.4

*Q* // IC50 lookup, key: COc1ccc(C(=O)C2CCN(CC(=O)N(Cc3nc4c(c(=O)[nH]3)COCC4)CC3CC3)CC2)cc1
*A* 15.5

*Q* // IC50 lookup, key: Cc1cc(C)n2ncc(C(=O)N[C@H]3CC[C@]4(CCN(c5ccc(F)cc5)C4=O)CC3)c2n1
*A* 5600

*Q* // IC50 lookup, key: Cc1ccc2c(=O)[nH]c3c(c2n1)COC(C(C)(C)C)C3 (racemic)
*A* 514

*Q* // IC50 lookup, key: Cc1cc(C)n2ncc(C(=O)NC34CCC(C(=O)Nc5cc(C)c(F)cc5Cl)(CC3)CC4)c2n1
*A* 82

*Q* // IC50 lookup, key: O=C(N[C@H]1CC[C@H](C(=O)Nc2ccc(F)cc2Cl)CC1)c1cnc2ccc(N3CCCC3)nn12
*A* 83

*Q* // IC50 lookup, key: Cn1ccc2c(=O)[nH]c(-c3ccc(C(F)(F)F)cc3)cc21
*A* 40

*Q* // IC50 lookup, key: CN1CCN(c2ccn3ncc(C(=O)N[C@H]4CC[C@H](C(=O)Nc5ccc(F)cc5Cl)CC4)c3n2)CC1
*A* 62
